B1: CLPTM1 (parent)
chain: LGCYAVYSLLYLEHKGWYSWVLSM

- Variants of: B1
- Test Method Notes: protein stability index of a GFP-peptide fusion (GPS, HEK-293T) (PSI 1-6); higher = more stable;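 note: lentivirally expressed fusions sorted by FACS into six bins by GFP to DsRed ratio, PSI derived from sequencing read proportions per bin multiplied by bin number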
- Test Settings: c terminus: a fixed tail appended
Is protein stability index at least 3? Then 1.0. If not, 0.0.

[
  {
    "Variant Descriptor": "H14V",
    "Qualitative Label": 0.0
  },
  {
    "Variant Descriptor": "M24V",
    "Qualitative Label": 1.0
  },
  {
    "Variant Descriptor": "W20P",
    "Qualitative Label": 1.0
  },
  {
    "Variant Descriptor": "H14L",
    "Qualitative Label": 0.0
  },
  {
    "Variant Descriptor": "L10N",
    "Qualitative Label": 1.0
  }
]

protein stability index >= 3 for `K15C` ?
0.0

Check if protein stability index >= 3 (inclusive). Item: `Y7E`
0.0

Threshold query (protein stability index >= 3) on `L12G`
1.0

# check: protein stability index of `V6D` is greater than or equal to 3
1.0

# bool: protein stability index of `S19N` >= 3
1.0

Source: the supplement of paper PMC10567573
